# measured_target: human Nox2 (Homo sapiens)
# Construct: host or cells: T-REx-CHO (hNOX2 T-REx-CHO), tetracycline-induced; membrane fraction
# Sequence (P04839 2-570 limits assumed): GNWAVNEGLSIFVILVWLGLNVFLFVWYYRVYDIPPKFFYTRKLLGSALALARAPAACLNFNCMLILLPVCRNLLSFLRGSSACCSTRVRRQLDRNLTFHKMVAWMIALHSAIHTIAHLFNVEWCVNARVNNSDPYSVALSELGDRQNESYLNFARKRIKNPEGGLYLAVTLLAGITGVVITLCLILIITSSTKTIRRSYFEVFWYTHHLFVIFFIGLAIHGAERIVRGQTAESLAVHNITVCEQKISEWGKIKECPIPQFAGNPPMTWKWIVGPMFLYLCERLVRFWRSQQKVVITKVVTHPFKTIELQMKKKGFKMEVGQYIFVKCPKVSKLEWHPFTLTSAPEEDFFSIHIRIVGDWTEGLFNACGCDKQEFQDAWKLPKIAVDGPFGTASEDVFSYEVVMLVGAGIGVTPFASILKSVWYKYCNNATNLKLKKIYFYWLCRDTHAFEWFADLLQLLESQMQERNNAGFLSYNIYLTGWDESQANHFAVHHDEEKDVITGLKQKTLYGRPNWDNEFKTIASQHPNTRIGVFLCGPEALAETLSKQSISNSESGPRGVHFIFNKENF
# Sequence (P13498 2-195 partner limits assumed): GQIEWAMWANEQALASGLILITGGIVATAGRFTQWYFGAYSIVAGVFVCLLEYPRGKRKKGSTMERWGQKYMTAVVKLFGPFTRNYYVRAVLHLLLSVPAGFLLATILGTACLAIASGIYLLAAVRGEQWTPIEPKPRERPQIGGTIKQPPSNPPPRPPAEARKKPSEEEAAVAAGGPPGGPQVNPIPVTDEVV
# protocol: ROS production by membranes expressing human Nox2, cell-free Amplex Red assay
# Assay type: biochemical
# details: cell-free membranes, Amplex Red; Cheng-Prusoff; average of at least three experiments in triplicate; read-out: Ki hNox2
experimental_endpoint: Ki (nM)
Numbers only here, please. The scale is nM.

Solved cases below.
# compound, unit_spec, value_reported
data = [
    ("O=c1c2c(-c3ccccc3F)n(Cc3ccccn3)c(=O)cc2[nH]n1-c1ccccc1Cl [(34)]", "nM", 640),
    ("O=c1c2c(-c3ccc(Cl)cc3)n(Cc3ccncc3)c(=O)cc2[nH]n1-c1ccccc1Cl [(18)]", "nM", 810),
    ("COc1ccc(-c2c3c(=O)n(-c4ccccc4OC)[nH]c3cc(=O)n2Cc2cccnc2)c(F)c1 [Compound (1)]", "nM", 813),
    ("COc1ccc(F)c(-c2c3c(=O)n(-c4ccccc4OC)[nH]c3cc(=O)n2Cc2ccn(C)n2)c1 [(13)]", "nM", 985),
    ("COc1ccc(Cn2c(C)c3c(=O)n(-c4ccccc4Cl)[nH]c3cc2=O)cn1 [(10)]", "nM", 700),
    ("O=c1c2c(-c3cc(F)ccc3F)n(Cc3cccnc3)c(=O)cc2[nH]n1-c1ccccc1Cl [(42)]", "nM", 540),
    ("COc1ccc(-c2c3c(=O)n(-c4ccccc4Cl)[nH]c3cc(=O)n2Cc2ccn(C)n2)c(F)c1 [(4)]", "nM", 813),
    ("O=c1c2c(-c3ccc(Cl)cc3)n(Cc3cccnc3)c(=O)cc2[nH]n1-c1ccccc1Cl [(25)]", "nM", 2180),
    ("Cc1c2c(=O)n(-c3ccccc3Cl)[nH]c2cc(=O)n1Cc1cccnc1 [(15)]", "nM", 907),
    ("O=c1c2c(-c3cc(Cl)cc(Cl)c3)n(Cc3ccncc3)c(=O)cc2[nH]n1-c1ccccc1Cl [(37)]", "nM", 950),
]

Record COc1cc(Cn2c(-c3ccc(Cl)cc3F)c3c(=O)n(-c4ccccc4Cl)[nH]c3cc2=O)ccn1 [(26)] , field Ki: 565

Record Cc1c2c(=O)n(-c3ccccc3Cl)[nH]c2cc(=O)n1Cc1ccn(C)n1 [(30)] , field Ki: 1060

Record COc1ccccc1-n1[nH]c2cc(=O)n(Cc3cccnc3)c(-c3ccc(Cl)cc3F)c2c1=O [(8)] , field Ki: 750

Record COc1ccc(-c2c3c(=O)n(-c4ccccc4Cl)[nH]c3cc(=O)n2Cc2cnccn2)cc1 [(2)] , field Ki: 670

Record O=c1c2c(-c3ccccc3F)n(Cc3cccnc3)c(=O)cc2[nH]n1-c1ccccc1Cl [(17)] , field Ki: 602

Record O=c1c2c(-c3ccccc3F)n(Cc3ccncc3)c(=O)cc2[nH]n1-c1ccccc1Cl [(29)] , field Ki: 655

Record O=c1c2c(-c3ccc(Cl)cc3F)n(Cc3ccncc3)c(=O)cc2[nH]n1-c1ccccc1Cl [(19)] , field Ki: 640
